# Test system: Staphylococcus aureus
# assay-method-text: Antibacterial activity against Staphylococcus aureus at 15 ug after 24 hrs by disc diffusion assay
# Format: functional
# conditions-used: read-out: IZ
Here the recorded zone of inhibition at 15 µg/disc is given for each entry.
Write the value in mm as a bare number.

Before answering, review these 8 worked examples.
[[record]]
compound = "CCC1[C@@H]2c3c(c4ccccc4n(C)c3=O)OC(c3ccccc3)[C@H]2CN1OS(=O)(=O)c1ccc(C)cc1 (mixture of isomers)"
assay_readout = "zone of inhibition at 15 µg/disc"
assay_result = 13

[[record]]
compound = "CCC1[C@@H]2Nc3ccccc3C(c3ccccc3)[C@H]2CN1OS(=O)(=O)c1ccc(C)cc1 (some centres undefined)"
assay_readout = "zone of inhibition at 15 µg/disc"
assay_result = 26

[[record]]
compound = "CCC1[C@H]2c3c(n(C)c4ccccc4c3=O)OC(c3ccccc3)[C@@H]2CN1OS(=O)(=O)c1ccc(C)cc1 (mixture of isomers)"
assay_readout = "zone of inhibition at 15 µg/disc"
assay_result = 26

[[record]]
compound = "CCC1[C@@H]2Nc3ccc(Cl)cc3C(c3ccccc3)[C@H]2CN1OS(=O)(=O)c1ccc(C)cc1 (some centres undefined)"
assay_readout = "zone of inhibition at 15 µg/disc"
assay_result = 13

[[record]]
compound = "CCC1[C@H]2c3c(n(C)c4ccccc4c3=O)OC(C)(C)[C@@H]2CN1OS(=O)(=O)c1ccc(C)cc1 (mixture of isomers)"
assay_readout = "zone of inhibition at 15 µg/disc"
assay_result = 26

[[record]]
compound = "CCC1[C@@H]2Nc3ccc(Cl)cc3C(C)(C)[C@H]2CN1OS(=O)(=O)c1ccc(C)cc1 (some centres undefined)"
assay_readout = "zone of inhibition at 15 µg/disc"
assay_result = 26

[[record]]
compound = "CCC1[C@@H]2c3c(c4ccccc4n(C)c3=O)OC(C)(C)[C@H]2CN1OS(=O)(=O)c1ccc(C)cc1 (mixture of isomers)"
assay_readout = "zone of inhibition at 15 µg/disc"
assay_result = 13

[[record]]
compound = "CCC1[C@@H]2Nc3ccc(Br)cc3C(c3ccccc3)[C@H]2CN1OS(=O)(=O)c1ccc(C)cc1 (some centres undefined)"
assay_readout = "zone of inhibition at 15 µg/disc"
assay_result = 26


Alright, here's another compound for you.
Test system Staphylococcus aureus; read-out zone of inhibition at 15 µg/disc; what value for O=C(O)c1cn(C2CC2)c2cc(N3CCNCC3)c(F)cc2c1=O ?
26

###

# Test system: Salmonella typhi
# assay-method-text: Antibacterial activity against Salmonella typhi at 25 ug after 24 hrs by disc diffusion assay
# Type: functional, Salmonella enterica subsp. enterica serovar Typhi
# conditions-used: Salmonella enterica, read-out: IZ
Here the recorded zone of inhibition at 25 µg/disc is given for each entry.

[[record]]
compound = "CCC1[C@H]2c3c(n(C)c4ccccc4c3=O)OC(c3ccccc3)[C@@H]2CN1OS(=O)(=O)c1ccc(C)cc1 (mixture of isomers)"
assay_result = "24 mm"

[[record]]
compound = "CCC1[C@@H]2Nc3ccccc3C(c3ccccc3)[C@H]2CN1OS(=O)(=O)c1ccc(C)cc1 (some centres undefined)"
assay_result = "24 mm"

[[record]]
compound = "O=C(O)c1cn(C2CC2)c2cc(N3CCNCC3)c(F)cc2c1=O"
assay_result = "24 mm"

[[record]]
compound = "CCC1[C@@H]2Nc3ccc(Cl)cc3C(c3ccccc3)[C@H]2CN1OS(=O)(=O)c1ccc(C)cc1 (some centres undefined)"
assay_result = "22 mm"

[[record]]
compound = "CCC1[C@@H]2Nc3ccc(Cl)cc3C(C)(C)[C@H]2CN1OS(=O)(=O)c1ccc(C)cc1 (some centres undefined)"
assay_result = "24 mm"


Query (compound): CCC1[C@@H]2c3c(c4ccccc4n(C)c3=O)OC(C)(C)[C@H]2CN1OS(=O)(=O)c1ccc(C)cc1 (mixture of isomers) ; field requested: zone of inhibition at 25 µg/disc
22 mm

Field entry: CCC1[C@@H]2c3c(c4ccccc4n(C)c3=O)OC(c3ccccc3)[C@H]2CN1OS(=O)(=O)c1ccc(C)cc1 (mixture of isomers)
22 mm

Field entry: CCC1[C@@H]2Nc3ccc(Br)cc3C(c3ccccc3)[C@H]2CN1OS(=O)(=O)c1ccc(C)cc1 (some centres undefined)
24 mm

Field entry: CCC1[C@H]2c3c(n(C)c4ccccc4c3=O)OC(C)(C)[C@@H]2CN1OS(=O)(=O)c1ccc(C)cc1 (mixture of isomers)
24 mm

###

# Test system: Escherichia coli
# assay-method-text: Antibacterial activity against Escherichia coli at 5 ug after 24 hrs by disc diffusion assay
# Assay type: functional
# conditions-used: read-out: IZ
assay-readout: zone of inhibition at 5 µg/disc
Phrase the answer as number then unit, nothing more needed.

Before answering, review these 3 worked examples.
[[record]]
compound = "CCC1[C@H]2c3c(n(C)c4ccccc4c3=O)OC(C)(C)[C@@H]2CN1OS(=O)(=O)c1ccc(C)cc1 (mixture of isomers)"
assay_readout = "zone of inhibition at 5 µg/disc"
assay_result = "12 mm"

[[record]]
compound = "CCC1[C@@H]2Nc3ccc(Cl)cc3C(c3ccccc3)[C@H]2CN1OS(=O)(=O)c1ccc(C)cc1 (stereo not given in full)"
assay_readout = "zone of inhibition at 5 µg/disc"
assay_result = "10 mm"

[[record]]
compound = "CCC1[C@@H]2Nc3ccccc3C(c3ccccc3)[C@H]2CN1OS(=O)(=O)c1ccc(C)cc1 (stereo not given in full)"
assay_readout = "zone of inhibition at 5 µg/disc"
assay_result = "10 mm"


Test system Escherichia coli; read-out zone of inhibition at 5 µg/disc; what value for CCC1[C@@H]2Nc3ccc(Cl)cc3C(C)(C)[C@H]2CN1OS(=O)(=O)c1ccc(C)cc1 (stereo not given in full) ?
10 mm

Field entry: CCC1[C@@H]2c3c(c4ccccc4n(C)c3=O)OC(c3ccccc3)[C@H]2CN1OS(=O)(=O)c1ccc(C)cc1 (mixture of isomers)
10 mm

###

# System: Pseudomonas aeruginosa
# assay-method-text: Antibacterial activity against Pseudomonas aeruginosa at 10 ug after 24 hrs by disc diffusion assay
# Format: functional
# conditions-used: read-out: IZ
assay-readout: zone of inhibition at 10 µg/disc (mm)
Write the value in mm as a bare number.

Before answering, review these 5 worked examples.
[[record]]
compound = "CCC1[C@@H]2c3c(c4ccccc4n(C)c3=O)OC(c3ccccc3)[C@H]2CN1OS(=O)(=O)c1ccc(C)cc1 (mixture of isomers)"
unit_text = "mm"
assay_result = 16

[[record]]
compound = "CCC1[C@@H]2c3c(c4ccccc4n(C)c3=O)OC(C)(C)[C@H]2CN1OS(=O)(=O)c1ccc(C)cc1 (mixture of isomers)"
unit_text = "mm"
assay_result = 16

[[record]]
compound = "CCC1[C@@H]2Nc3ccc(Cl)cc3C(C)(C)[C@H]2CN1OS(=O)(=O)c1ccc(C)cc1 (some centres undefined)"
unit_text = "mm"
assay_result = 14

[[record]]
compound = "CCC1[C@@H]2Nc3ccc(Cl)cc3C(c3ccccc3)[C@H]2CN1OS(=O)(=O)c1ccc(C)cc1 (some centres undefined)"
unit_text = "mm"
assay_result = 16

[[record]]
compound = "CCC1[C@H]2c3c(n(C)c4ccccc4c3=O)OC(c3ccccc3)[C@@H]2CN1OS(=O)(=O)c1ccc(C)cc1 (mixture of isomers)"
unit_text = "mm"
assay_result = 14


Query (compound): CCC1[C@H]2c3c(n(C)c4ccccc4c3=O)OC(C)(C)[C@@H]2CN1OS(=O)(=O)c1ccc(C)cc1 (mixture of isomers) ; field requested: zone of inhibition at 10 µg/disc
26

Field entry: CCC1[C@@H]2Nc3ccc(Br)cc3C(c3ccccc3)[C@H]2CN1OS(=O)(=O)c1ccc(C)cc1 (some centres undefined)
26

Field entry: O=C(O)c1cn(C2CC2)c2cc(N3CCNCC3)c(F)cc2c1=O [CIPROFLOXACIN]
14

Field entry: CCC1[C@@H]2Nc3ccccc3C(c3ccccc3)[C@H]2CN1OS(=O)(=O)c1ccc(C)cc1 (some centres undefined)
14

###

# Tested on: Pseudomonas aeruginosa
# assay-method-text: Antibacterial activity against Pseudomonas aeruginosa after 18 to 20 hrs by broth micro dilution assay
# Type: functional
Here the recorded MIC90 is given for each entry.
Write the value in µg/mL as a bare number.

Before answering, review these 3 worked examples.
[[record]]
compound = "CCC1[C@H]2c3c(n(C)c4ccccc4c3=O)OC(C)(C)[C@@H]2CN1OS(=O)(=O)c1ccc(C)cc1 (mixture of isomers)"
assay_readout = "MIC90"
unit_text = "µg/mL"
assay_result = 0.5

[[record]]
compound = "CCC1[C@@H]2c3c(c4ccccc4n(C)c3=O)OC(C)(C)[C@H]2CN1OS(=O)(=O)c1ccc(C)cc1 (mixture of isomers)"
assay_readout = "MIC90"
unit_text = "µg/mL"
assay_result = 0.5

[[record]]
compound = "CCC1[C@@H]2Nc3ccc(Cl)cc3C(C)(C)[C@H]2CN1OS(=O)(=O)c1ccc(C)cc1 (some centres undefined)"
assay_readout = "MIC90"
unit_text = "µg/mL"
assay_result = 128


Alright, here's another compound for you.
Query (compound): CCC1[C@@H]2Nc3ccccc3C(c3ccccc3)[C@H]2CN1OS(=O)(=O)c1ccc(C)cc1 (some centres undefined) ; field requested: MIC90
128
